- target-of-assay: HIV protease (Human immunodeficiency virus type 1 group M subtype B)
- Construct: HIV protease consists of 99 amino acids and is evidently split off by itself from the pol polyprotein
- experiment-notes: Inhibition of HIV protease (cleavage of H-Ser-Phe-Asn-Phe-Opr-Gln-Ile-OH, HPLC)
- Assay type: biochemical
- condition-set: inhibitor concentration at which the cleavage rate is halved; unit as printed for Ex. 8; read-out: IC50
measured-property: IC50
Answer format: value, then unit.

Recorded result, CC(C)[C@H](NC(=O)OC(C)(C)C)C(=O)N[C@@H](Cc1ccccc1)[C@H](O)[C@@H](O)[C@H](Cc1ccccc1)NC(=O)[C@@H](NC(=O)OC(C)(C)C)C(C)C [Example 8] , IC50: 30 µM
